Attribution: BindingDB's records for PubMed 9454827

biological target: Neuronal acetylcholine receptor subunit alpha-4 (Homo sapiens)
Sequence (P43681 whole entry): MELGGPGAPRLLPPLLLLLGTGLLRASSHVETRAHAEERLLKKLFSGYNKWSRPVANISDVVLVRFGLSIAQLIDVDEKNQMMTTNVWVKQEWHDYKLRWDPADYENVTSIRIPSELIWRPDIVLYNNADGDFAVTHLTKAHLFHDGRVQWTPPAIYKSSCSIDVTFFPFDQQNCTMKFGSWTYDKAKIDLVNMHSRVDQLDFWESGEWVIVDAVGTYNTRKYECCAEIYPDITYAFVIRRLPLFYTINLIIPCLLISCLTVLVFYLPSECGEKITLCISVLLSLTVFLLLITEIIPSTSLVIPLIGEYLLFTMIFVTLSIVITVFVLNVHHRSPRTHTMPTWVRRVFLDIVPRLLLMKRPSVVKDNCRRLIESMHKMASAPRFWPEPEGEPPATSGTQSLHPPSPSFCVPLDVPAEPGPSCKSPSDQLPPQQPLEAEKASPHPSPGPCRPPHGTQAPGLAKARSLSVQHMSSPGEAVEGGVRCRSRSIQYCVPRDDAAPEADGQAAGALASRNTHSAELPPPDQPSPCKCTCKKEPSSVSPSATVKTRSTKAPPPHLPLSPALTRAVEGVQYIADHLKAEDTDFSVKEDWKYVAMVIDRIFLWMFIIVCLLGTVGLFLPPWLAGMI
Exercise: for every item that follows, state its recorded Ki.
Numbers only, in nM.

Here are 3 compounds together with their reported answers.
compound	Ki [nM]
COc1cc2c3cc1Oc1cc(ccc1O)C[C@H]1c4c(cc(OC)c(O)c4Oc4ccc(cc4)C[C@@H]3N(C)CC2)CC[N+]1(C)C	860
CNC1(C)C2CCC(C2)C1(C)C (stereo not given)	560
C[N+](C)(C)CCOC(=O)CCCCCCC(=O)OCC[N+](C)(C)C	1120

Moving on to another compound below.
Input line: Tell us which Ki value is on record for O=c1cccc2n1C[C@H]1CNC[C@H]2C1
Output line: 515

* * *

Recorded below: pKi, system Neuronal acetylcholine receptor subunit alpha-2 (Homo sapiens).
Numbers only, as −log10 of the molar value.

Example results:
compound	measure	numericReadout
CO[C@@H]1CC=C2CCN3CCC4=C(CC(=O)OC4)[C@@]23C1	pKi	5.29
COc1cc2c3cc1Oc1cc(ccc1O)C[C@H]1c4c(cc(OC)c(O)c4Oc4ccc(cc4)C[C@@H]3N(C)CC2)CC[N+]1(C)C	pKi	5.65
CNC1(C)C2CCC(C2)C1(C)C (stereo unspecified)	pKi	5.51
CN1CCC[C@H]1c1cccnc1 [(R,S)-nicotine]	pKi	5.00

Pending compound:
Input line: Tell me its pKi given C[N+](C)(C)CCOC(=O)CCCCCCC(=O)OCC[N+](C)(C)C as the entry.
Output line: 5.06

* * *

pKi: −log10 of the molar value.
This document collects pKi values reported for Neuronal acetylcholine receptor subunit alpha-3 (Homo sapiens, UniProt P32297).

sampleSmiles	pKi
C[N+](C)(C)CCOC(=O)CCCCCCC(=O)OCC[N+](C)(C)C	< 5.00

Value sought for every listed compound: pKi.
1. C[N+]1(C)CCN(c2ccccc2)CC1
2. O=c1cccc2n1C[C@H]1CNC[C@H]2C1
3. COc1cc2c3cc1Oc1cc(ccc1O)C[C@H]1c4c(cc(OC)c(O)c4Oc4ccc(cc4)C[C@@H]3N(C)CC2)CC[N+]1(C)C

Output line:
["< 5.00", "< 5.00", 6.14]
